Condition notes: 308.15 K; 100 kPa; Liquid; Frequency=3 MHz; Single path-length method
Below: a set of entries, each annotated with reported speed of sound.
Kindly provide the numeric value in m/s only, without the unit symbol.

Lookup: Complete the entry with speed of sound for CC[S+](CC)CC.O=S(=O)([N-]S(=O)(=O)C(F)(F)F)C(F)(F)F [triethylsulfonium bis((trifluoromethyl)sulfonyl)imide]
Found: 1222.4

Lookup: Complete the entry with speed of sound for CCCC[N+]1(C)CCCC1.O=S(=O)([N-]S(=O)(=O)C(F)(F)F)C(F)(F)F
Found: 1247.1

Lookup: Complete the entry with speed of sound for C=CCn1cc[n+](C)c1.O=S(=O)([N-]S(=O)(=O)C(F)(F)F)C(F)(F)F
Found: 1217.8

Lookup: Complete the entry with speed of sound for O=S(=O)([N-]S(=O)(=O)C(F)(F)F)C(F)(F)F.On1cc[n+](O)c1 [1,3-dihydroxyimidazolium bis(trifluoromethylsulfonyl)imide]
Found: 1174.1

Lookup: Complete the entry with speed of sound for CCCO [propan-1-ol]
Found: 1172.4

---

Condition notes: 338.15 K; 100 kPa; Liquid; Capillary tube (Ostwald / Ubbelohde) method
Below: a set of entries, each annotated with reported log10(viscosity).
# log10 transformed; quantity=viscosity; unit=mPa·s

Some molecules with recorded log10(viscosity):
Molecule: CCCC[N+]1(C)CCCC1.O=S(=O)([N-]S(=O)(=O)C(F)(F)F)C(F)(F)F
Outcome measure: log10(viscosity)
Number: 1.26

Molecule: O=S(=O)([N-]S(=O)(=O)C(F)(F)F)C(F)(F)F.On1cc[n+](O)c1 [1,3-dihydroxyimidazolium bis(trifluoromethylsulfonyl)imide]
Outcome measure: log10(viscosity)
Number: 1.44

Molecule: CCCO
Outcome measure: log10(viscosity)
Number: -0.09

Lookup: Complete the entry with log10(viscosity) for C=CCn1cc[n+](C)c1.O=S(=O)([N-]S(=O)(=O)C(F)(F)F)C(F)(F)F
Found: 1.01

Lookup: Complete the entry with log10(viscosity) for CC[S+](CC)CC.O=S(=O)([N-]S(=O)(=O)C(F)(F)F)C(F)(F)F [triethylsulfonium bis((trifluoromethyl)sulfonyl)imide]
Found: 0.99

---

Below: a set of entries, each annotated with reported viscosity.
Condition notes: 298.15 K; 100 kPa; Liquid; Capillary tube (Ostwald / Ubbelohde) method
Kindly provide the numeric value in mPa·s only, without the unit symbol.

Some compounds with recorded viscosity:
Compound: CC[S+](CC)CC.O=S(=O)([N-]S(=O)(=O)C(F)(F)F)C(F)(F)F [triethylsulfonium bis((trifluoromethyl)sulfonyl)imide]
viscosity / mPa·s: 32.43
--
Compound: CCCC[N+]1(C)CCCC1.O=S(=O)([N-]S(=O)(=O)C(F)(F)F)C(F)(F)F
viscosity / mPa·s: 76.54
--
Compound: O=S(=O)([N-]S(=O)(=O)C(F)(F)F)C(F)(F)F.On1cc[n+](O)c1 [1,3-dihydroxyimidazolium bis(trifluoromethylsulfonyl)imide]
viscosity / mPa·s: 171.83

Here's the next entry for you.
Lookup: Complete the entry with viscosity for CCCO
Found: 1.897

---

Below: a set of entries, each annotated with reported speed of sound.
Condition notes: 303.15 K; 100 kPa; Liquid; Frequency=3 MHz; Single path-length method
Kindly provide the numeric value in m/s only, without the unit symbol.

Some compounds with recorded speed of sound:
Compound: O=S(=O)([N-]S(=O)(=O)C(F)(F)F)C(F)(F)F.On1cc[n+](O)c1 [1,3-dihydroxyimidazolium bis(trifluoromethylsulfonyl)imide]
Unit annotation: m/s
Number: 1185.2

Compound: CC[S+](CC)CC.O=S(=O)([N-]S(=O)(=O)C(F)(F)F)C(F)(F)F [triethylsulfonium bis((trifluoromethyl)sulfonyl)imide]
Unit annotation: m/s
Number: 1232.4

Compound: CCCO [propan-1-ol]
Unit annotation: m/s
Number: 1189.4

Compound: CCCC[N+]1(C)CCCC1.O=S(=O)([N-]S(=O)(=O)C(F)(F)F)C(F)(F)F
Unit annotation: m/s
Number: 1258.2

Lookup: Complete the entry with speed of sound for C=CCn1cc[n+](C)c1.O=S(=O)([N-]S(=O)(=O)C(F)(F)F)C(F)(F)F
Found: 1228.9
